assay: Test on the solubility of glibenclamide in additive/cyclodextrin solutions; type: physicochemical; settings: 25 °C, aqueous with cosolvent or surfactant or cyclodextrin, thermodynamic from solid, meglumine 5% (w/v), cyclodextrin from 30% (w/v) to 40% (w/v), read-out: solubility of glibenclamide
MEASURE: solubility at 1 h

Problem: Returns the measured solubility at 1 h for the input molecule. Input: COc1ccc(Cl)cc1C(=O)NCCc1ccc(S(=O)(=O)NC(=O)NC2CCCCC2)cc1 [glibenclamide]
Result: ~49.4 mg/mL

###

experiment: Test on the solubility of glibenclamide in additive/cyclodextrin solutions; type: physicochemical; settings: 25 °C, aqueous with cosolvent or surfactant or cyclodextrin, thermodynamic from solid, sodium carbonate 0.1% (w/v), 2-hydroxypropyl-β-cyclodextrin 10% (w/v), read-out: Solubility
MEASURE: solubility at 1 h (µg/mL)
# unit: µg/mL | format: bare number

Problem: So what's the measured solubility at 1 h for this one? COc1ccc(Cl)cc1C(=O)NCCc1ccc(S(=O)(=O)NC(=O)NC2CCCCC2)cc1 [glibenclamide]
Result: 6510

###

test: Test on the solubility of glibenclamide in additive/cyclodextrin solutions; assay type: physicochemical; conditions: 25 °C, aqueous with cosolvent or surfactant or cyclodextrin, thermodynamic from solid, meglumine 5% (w/v), 2-hydroxypropyl-β-cyclodextrin 10% (w/v), read-out: Solubility
MEASURE: solubility at 1 h (mg/mL)
Report only the number, with the unit mg/mL understood.

Problem: Suppose we examine the molecule COc1ccc(Cl)cc1C(=O)NCCc1ccc(S(=O)(=O)NC(=O)NC2CCCCC2)cc1 [glibenclamide] ; what solubility at 1 h value has been reported?
Result: 34.5

###

assay: Test on the solubility of glibenclamide in additive/cyclodextrin solutions; type: physicochemical; conditions: 25 °C, aqueous with cosolvent or surfactant or cyclodextrin, thermodynamic from solid, sodium carbonate 0.1% (w/v), cyclodextrin from 20% (w/v) to 40% (w/v), read-out: solubility of glibenclamide
MEASURE: solubility at 1 h

Problem: For the molecule shown here, COc1ccc(Cl)cc1C(=O)NCCc1ccc(S(=O)(=O)NC(=O)NC2CCCCC2)cc1 [glibenclamide] , give the reported solubility at 1 h.
Result: ~10.6 mg/mL

###

assay: Test on the solubility of glibenclamide in additive/cyclodextrin solutions; format: physicochemical; settings: 25 °C, aqueous with cosolvent or surfactant or cyclodextrin, thermodynamic from solid, meglumine 5% (w/v), 2-hydroxypropyl-β-cyclodextrin 20% (w/v), read-out: Solubility
MEASURE: solubility at 1 h
Please answer using the number first and the unit second.

Problem: Sample COc1ccc(Cl)cc1C(=O)NCCc1ccc(S(=O)(=O)NC(=O)NC2CCCCC2)cc1 [glibenclamide] — what was its solubility at 1 h?
Result: 42.2 mg/mL

###

experiment: Test on the solubility of glibenclamide in additive/cyclodextrin solutions; format: physicochemical; conditions: 25 °C, aqueous with cosolvent or surfactant or cyclodextrin, thermodynamic from solid, meglumine 0.1% (w/v), cyclodextrin from 5% (w/v) to 40% (w/v), read-out: solubility of glibenclamide
MEASURE: solubility at 1 h

Problem: // returns reported solubility at 1 h for input COc1ccc(Cl)cc1C(=O)NCCc1ccc(S(=O)(=O)NC(=O)NC2CCCCC2)cc1 [glibenclamide]
Result: ~2170 µg/mL

###

experiment: Test on the solubility of glibenclamide in additive/cyclodextrin solutions; type: physicochemical; details: 25 °C, aqueous with cosolvent or surfactant or cyclodextrin, thermodynamic from solid, sodium hydroxide 0.01% (w/v), 2-hydroxypropyl-β-cyclodextrin 1.25% (w/v), read-out: Solubility
MEASURE: solubility at 1 h (µg/mL)
Answer with a number only, understood to be in µg/mL.

Problem: Could you tell me which solubility at 1 h is on file for COc1ccc(Cl)cc1C(=O)NCCc1ccc(S(=O)(=O)NC(=O)NC2CCCCC2)cc1 [glibenclamide] ?
Result: 370

###

assay: Test on the solubility of glibenclamide in additive/cyclodextrin solutions; format: physicochemical; details: 25 °C, aqueous with cosolvent or surfactant or cyclodextrin, thermodynamic from solid, meglumine 5% (w/v), 2-hydroxypropyl-β-cyclodextrin 30% (w/v), read-out: Solubility
MEASURE: solubility at 1 h

Problem: Need solubility at 1 h, item COc1ccc(Cl)cc1C(=O)NCCc1ccc(S(=O)(=O)NC(=O)NC2CCCCC2)cc1 [glibenclamide]
Result: 49.4 mg/mL

###

experiment: Test on the solubility of glibenclamide in additive/cyclodextrin solutions; type: physicochemical; conditions: 25 °C, aqueous with cosolvent or surfactant or cyclodextrin, thermodynamic from solid, meglumine 0.1% (w/v), 2-hydroxypropyl-β-cyclodextrin 1.25% (w/v), read-out: Solubility
MEASURE: solubility at 1 h (µg/mL)
Your answer is read as µg/mL, so omit the unit and give the number.

Problem: Which solubility at 1 h value is on record for COc1ccc(Cl)cc1C(=O)NCCc1ccc(S(=O)(=O)NC(=O)NC2CCCCC2)cc1 [glibenclamide] ?
Result: 1420

###

assay: Test on the solubility of glibenclamide in additive/cyclodextrin solutions; format: physicochemical; settings: 25 °C, aqueous with cosolvent or surfactant or cyclodextrin, thermodynamic from solid, meglumine 5% (w/v), 2-hydroxypropyl-β-cyclodextrin 5% (w/v), read-out: Solubility
MEASURE: solubility at 1 h (mg/mL)
Entry rule: numbers only, all in mg/mL.

Problem: Reported solubility at 1 h for COc1ccc(Cl)cc1C(=O)NCCc1ccc(S(=O)(=O)NC(=O)NC2CCCCC2)cc1 [glibenclamide] : what is it?
Result: 25.2

###

assay: Test on the solubility of glibenclamide in additive/cyclodextrin solutions; format: physicochemical; settings: 25 °C, aqueous with cosolvent or surfactant or cyclodextrin, thermodynamic from solid, meglumine 5% (w/v), cyclodextrin 0% (w/v), read-out: Solubility
MEASURE: solubility at 1 h (mg/mL)
Numbers only; they are read as mg/mL.

Problem: Which solubility at 1 h value is on record for COc1ccc(Cl)cc1C(=O)NCCc1ccc(S(=O)(=O)NC(=O)NC2CCCCC2)cc1 [glibenclamide] ?
Result: 13.1

###

assay: Test on the solubility of glibenclamide in additive/cyclodextrin solutions; assay type: physicochemical; settings: 25 °C, aqueous with cosolvent or surfactant or cyclodextrin, thermodynamic from solid, sodium hydrogen carbonate 4% (w/v), 2-hydroxypropyl-β-cyclodextrin 40% (w/v), read-out: Solubility
MEASURE: solubility at 1 h (µg/mL)
Provide the reading as a plain figure in µg/mL.

Problem: Data request, read-out solubility at 1 h, for COc1ccc(Cl)cc1C(=O)NCCc1ccc(S(=O)(=O)NC(=O)NC2CCCCC2)cc1 [glibenclamide]
Result: 1750

###

experiment: Test on the solubility of glibenclamide in additive/cyclodextrin solutions; format: physicochemical; details: 25 °C, aqueous with cosolvent or surfactant or cyclodextrin, thermodynamic from solid, meglumine 0% (w/v), 2-hydroxypropyl-β-cyclodextrin 10% (w/v), read-out: Solubility
MEASURE: solubility at 1 h (µg/mL)
Provide the reading as a plain figure in µg/mL.

Problem: Quick one: solubility at 1 h of COc1ccc(Cl)cc1C(=O)NCCc1ccc(S(=O)(=O)NC(=O)NC2CCCCC2)cc1 [glibenclamide] ?
Result: 32

###

assay: Test on the solubility of glibenclamide in additive/cyclodextrin solutions; format: physicochemical; settings: 25 °C, aqueous with cosolvent or surfactant or cyclodextrin, thermodynamic from solid, meglumine 0% (w/v), 2-hydroxypropyl-β-cyclodextrin 0.5% (w/v), read-out: Solubility
MEASURE: solubility at 1 h (µg/mL)
Give the quantity in µg/mL, number only.

Problem: Request the reported solubility at 1 h associated with COc1ccc(Cl)cc1C(=O)NCCc1ccc(S(=O)(=O)NC(=O)NC2CCCCC2)cc1 [glibenclamide]
Result: 1.3

Source: patent US10966993B2
